B1: Hairpin Ribozyme (parent)
chain: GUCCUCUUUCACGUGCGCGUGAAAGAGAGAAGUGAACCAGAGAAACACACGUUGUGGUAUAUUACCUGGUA

Variants of: B1
Assay: self-cleavage, relative activity (ratio to wild type); higher = more cleavage; co-transcriptional
Assign class by self-cleavage: not lower than 0.1 means Satisfied; lower than 0.1 means Not satisfied.

G19A G69A; Satisfied
U2G C12U; Satisfied
C12A G21C; Satisfied
C3G A39U; Satisfied
A43G G68C; Not satisfied

Inquiry: Does U7A G42A have a reported self-cleavage of at least 0.1?
Reply text: Satisfied

Inquiry: Does U5A U62A have a reported self-cleavage of at least 0.1?
Reply text: Satisfied

Inquiry: Does U5G U7A have a reported self-cleavage of at least 0.1?
Reply text: Satisfied

Inquiry: Does G34C A59G have a reported self-cleavage of at least 0.1?
Reply text: Satisfied

Inquiry: Does C18U U20A have a reported self-cleavage of at least 0.1?
Reply text: Satisfied

Inquiry: Does U14C A59C have a reported self-cleavage of at least 0.1?
Reply text: Not satisfied

Inquiry: Does C10G G57U have a reported self-cleavage of at least 0.1?
Reply text: Satisfied

Inquiry: Does U8C U60G have a reported self-cleavage of at least 0.1?
Reply text: Satisfied

Inquiry: Does C16U C18U have a reported self-cleavage of at least 0.1?
Reply text: Satisfied

Inquiry: Does C4A G69U have a reported self-cleavage of at least 0.1?
Reply text: Satisfied

Inquiry: Does C3U A59G have a reported self-cleavage of at least 0.1?
Reply text: Not satisfied

Inquiry: Does C12G U60A have a reported self-cleavage of at least 0.1?
Reply text: Satisfied

Inquiry: Does C50A U58C have a reported self-cleavage of at least 0.1?
Reply text: Satisfied

Inquiry: Does C6U G68C have a reported self-cleavage of at least 0.1?
Reply text: Satisfied

Inquiry: Does U7C C48G have a reported self-cleavage of at least 0.1?
Reply text: Satisfied

Inquiry: Does C3G C65U have a reported self-cleavage of at least 0.1?
Reply text: Not satisfied

Inquiry: Does C3U A30G have a reported self-cleavage of at least 0.1?
Reply text: Satisfied

Inquiry: Does G17U A59U have a reported self-cleavage of at least 0.1?
Reply text: Satisfied
